Below: a set of entries, each annotated with reported pIC50.
Target: recombinant human HDAC6 (Homo sapiens)
Sequence (Q9UBN7 whole entry): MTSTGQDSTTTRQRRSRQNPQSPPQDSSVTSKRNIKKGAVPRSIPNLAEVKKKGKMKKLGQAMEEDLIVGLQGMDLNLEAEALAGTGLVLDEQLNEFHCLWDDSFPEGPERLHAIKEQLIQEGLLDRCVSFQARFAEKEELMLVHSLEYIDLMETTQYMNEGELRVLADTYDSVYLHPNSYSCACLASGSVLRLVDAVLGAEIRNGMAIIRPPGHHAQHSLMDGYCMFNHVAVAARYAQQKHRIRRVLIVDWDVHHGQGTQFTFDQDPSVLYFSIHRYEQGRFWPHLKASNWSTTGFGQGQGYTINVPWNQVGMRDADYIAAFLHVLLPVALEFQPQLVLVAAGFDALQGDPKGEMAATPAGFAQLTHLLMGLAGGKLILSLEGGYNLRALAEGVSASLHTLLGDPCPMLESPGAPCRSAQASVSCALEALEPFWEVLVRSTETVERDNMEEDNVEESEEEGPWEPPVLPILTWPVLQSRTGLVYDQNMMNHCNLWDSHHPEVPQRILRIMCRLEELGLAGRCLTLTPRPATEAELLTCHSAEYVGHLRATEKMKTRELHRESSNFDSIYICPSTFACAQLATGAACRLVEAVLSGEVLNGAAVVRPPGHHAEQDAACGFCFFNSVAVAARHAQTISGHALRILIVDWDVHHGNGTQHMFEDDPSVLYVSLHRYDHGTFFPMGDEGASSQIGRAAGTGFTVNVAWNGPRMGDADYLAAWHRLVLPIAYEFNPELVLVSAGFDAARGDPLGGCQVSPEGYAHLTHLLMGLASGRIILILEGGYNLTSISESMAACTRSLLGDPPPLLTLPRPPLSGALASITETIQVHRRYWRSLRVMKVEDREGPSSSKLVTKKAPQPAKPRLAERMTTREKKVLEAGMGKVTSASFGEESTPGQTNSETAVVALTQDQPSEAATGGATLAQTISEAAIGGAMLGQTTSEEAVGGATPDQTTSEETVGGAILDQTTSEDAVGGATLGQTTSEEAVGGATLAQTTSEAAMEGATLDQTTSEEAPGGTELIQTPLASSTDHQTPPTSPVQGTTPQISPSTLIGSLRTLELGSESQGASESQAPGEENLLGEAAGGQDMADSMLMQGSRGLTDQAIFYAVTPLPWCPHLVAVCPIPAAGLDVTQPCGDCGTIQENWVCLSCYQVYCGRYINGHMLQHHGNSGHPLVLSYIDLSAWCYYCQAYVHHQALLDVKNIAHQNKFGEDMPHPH
Assay: Enzymatic screening on recombinant human HDAC6
Format: biochemical
Settings: Table 2; read-out: HDAC6 IC50
Reminder that pIC50 is minus the log10 of a molar concentration.

# molecule, pIC50
rows = [
    ("O=C(NO)c1cc(F)c(Cc2nnc(-c3ccncc3)s2)c(F)c1 [compound 195]", 8.40),
    ("O=C(NO)c1ccc(Sc2nnc(-c3ccc(F)cc3)[nH]2)cc1 [comp. 29]", 7.72),
    ("Cn1c(Sc2c(F)cc(C(=O)NO)cc2F)nnc1-c1c(F)cccc1F [comp. 165]", 8.10),
    ("O=C(NO)c1ccc(Cn2nnc(-c3ccccn3)n2)cc1 [comp. 89]", 8.05),
    ("Nc1ccc(-c2nnn(Cc3c(F)cc(C(=O)NO)cc3F)n2)cc1 [comp. 171]", 8.40),
    ("COc1ccc(Cc2nc(Cc3ccc(C(=O)NO)cc3)n(-c3ccc(C(F)(F)F)cc3)n2)cc1OC [comp. 44]", 6.38),
    ("O=C(NO)c1ccc(Cn2nnc(-c3ccc(Cl)cc3Cl)n2)cc1 [comp. 38]", 8.00),
    ("CN(c1ccc(-c2nnc(Sc3c(F)cc(C(=O)NO)cc3F)s2)cc1)S(C)(=O)=O [compound 187]", 7.26),
]

// switching to the query molecule
Lab note: measured pIC50 of O=C(NO)c1ccc(Cn2nnc(-c3csc4ccccc34)n2)cc1 [comp. 42] was 8.30

Measured values drawn from patent US11351178B2 for this set.
